Target: T1, human VEGF (hVEGF) (human, UniProt P15692 181-395)
T1 construct: also called VEGF-A
T1 sequence: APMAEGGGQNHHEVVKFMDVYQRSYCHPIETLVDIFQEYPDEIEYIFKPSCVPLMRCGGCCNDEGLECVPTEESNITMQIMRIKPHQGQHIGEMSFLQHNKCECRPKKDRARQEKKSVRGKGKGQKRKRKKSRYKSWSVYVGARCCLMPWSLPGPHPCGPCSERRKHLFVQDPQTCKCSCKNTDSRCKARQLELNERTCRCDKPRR
Assay: SPR single-cycle;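 further: fab variants injected over hVEGF immobilized on a CM5 chip (Biacore T200), threefold dilution series from 0.02 to 50 nM, kinetics fitted with a 1:1 Langmuir model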
Threshold-based label: Kd under 0.6 nM gives true, Kd not under 0.6 nM gives false.

binder	qualitativeLabel
G6.31 HC-S74E (Fab, name in Kabat numbering, V domains shown, Fab) VH: EVQLVESGGGLVQPGGSLRLSCAASGFTISDYWIHWVRQAPGKGLEWVAGITPAGGYTYYADSVKGRFTISADTEKNTAYLQMNSLRAEDTAVYYCARFVFFLPYAMDYWGQGTLVTVSS VL: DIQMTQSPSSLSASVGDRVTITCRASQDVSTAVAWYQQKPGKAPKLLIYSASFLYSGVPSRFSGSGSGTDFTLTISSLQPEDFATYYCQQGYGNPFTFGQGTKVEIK	false
G6.31 HC-T73E (Fab, name in Kabat numbering, V domains shown, Fab) VH: EVQLVESGGGLVQPGGSLRLSCAASGFTISDYWIHWVRQAPGKGLEWVAGITPAGGYTYYADSVKGRFTISADESKNTAYLQMNSLRAEDTAVYYCARFVFFLPYAMDYWGQGTLVTVSS VL: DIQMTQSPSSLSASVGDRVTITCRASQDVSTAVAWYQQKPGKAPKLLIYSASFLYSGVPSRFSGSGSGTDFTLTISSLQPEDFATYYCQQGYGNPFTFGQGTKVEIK	false
G6.31 HC-T28K (Fab, name in Kabat numbering, V domains shown, Fab) VH: EVQLVESGGGLVQPGGSLRLSCAASGFKISDYWIHWVRQAPGKGLEWVAGITPAGGYTYYADSVKGRFTISADTSKNTAYLQMNSLRAEDTAVYYCARFVFFLPYAMDYWGQGTLVTVSS VL: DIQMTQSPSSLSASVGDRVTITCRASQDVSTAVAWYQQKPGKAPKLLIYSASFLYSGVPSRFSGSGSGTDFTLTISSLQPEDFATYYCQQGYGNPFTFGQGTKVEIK	true
G6.31 HC-A71E (Fab, name in Kabat numbering, V domains shown, Fab) VH: EVQLVESGGGLVQPGGSLRLSCAASGFTISDYWIHWVRQAPGKGLEWVAGITPAGGYTYYADSVKGRFTISEDTSKNTAYLQMNSLRAEDTAVYYCARFVFFLPYAMDYWGQGTLVTVSS VL: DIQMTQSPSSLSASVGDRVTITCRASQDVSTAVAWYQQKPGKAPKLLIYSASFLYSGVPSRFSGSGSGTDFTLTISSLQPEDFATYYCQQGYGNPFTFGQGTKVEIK	false
G6.31 HC-T28E (Fab, name in Kabat numbering, V domains shown, Fab) VH: EVQLVESGGGLVQPGGSLRLSCAASGFEISDYWIHWVRQAPGKGLEWVAGITPAGGYTYYADSVKGRFTISADTSKNTAYLQMNSLRAEDTAVYYCARFVFFLPYAMDYWGQGTLVTVSS VL: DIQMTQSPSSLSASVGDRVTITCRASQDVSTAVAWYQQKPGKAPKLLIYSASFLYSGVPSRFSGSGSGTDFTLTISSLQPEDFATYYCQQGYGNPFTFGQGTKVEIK	true
